# ASSAY: cAMP Responsive Elements (CRE) small molecule agonists, cell-based qHTS assay (AID 1963590); note: % is set by controls: 0 for no effect and ±100 for the full control effect
# TEST SETTINGS: CRE-bla HEK293T, beta-lactamase FRET ratio, 3 h; series mostly up to 92.4 µM
Results filed as inconclusive are left out. Activity calls are given as the source filed them. Calls come from the whole dose curve. Peptide text beside a SMILES is read from it.
REPORTED PROPERTY: activation

MOLECULE | OBSERVED VALUE
Nc1cc([N+](=O)[O-])cc(Cl)c1O | inactive
COC(=O)c1ccccc1Cl | inactive
CCN(CC)CCNC(=O)COc1ccc(Cl)cc1 | inactive
COc1ccc2c(c1OC)C(=O)O[C@@H]2[C@H]1c2c(cc3c(c2OC)OCO3)CCN1C | inactive
CN(C)CC/C=C1/c2ccccc2COc2ccc(CC(=O)O)cc21 | inactive
CC(=O)SC[C@@H](Cc1ccccc1)C(=O)NCC(=O)OCc1ccccc1 | inactive
O=C(/C=C/c1ccc(O)c(O)c1)O[C@@H]1C[C@](O)(C(=O)O)C[C@@H](O)[C@H]1O | inactive
CCO[Si](OCC)(OCC)OCC | inactive
COC(=O)NN | inactive
CCN(CC)CCc1nc(-c2ccccc2)no1 | inactive
CN1[C@@H]2CC[C@H]1CC(OC(=O)c1c[nH]c3ccccc13)C2 (some centres undefined) | inactive
CC(=O)CCCCn1c(=O)c2c(ncn2C)n(C)c1=O | inactive
CC(=O)N/N=C/c1ccc([N+](=O)[O-])o1 | inactive
C/C(=N\[Si](C)(C)C)O[Si](C)(C)C | inactive
O=C1OC(=O)C2C3C=CC(C3)C12 (centres undefined) | inactive
CC/C=C\CC/C=C/C(OCC)OCC | inactive
NNc1nnc(NN)c2ccccc12 | inactive
O=C(CS)Nc1ccccc1 | inactive
Oc1ccc(Nc2ccccc2)cc1 | inactive
CCCCCC(=O)OCCc1ccccc1 | inactive
CC(C)C(O)C(C)(C)CO (centres undefined) | inactive
O=C(O)/C=C/c1ccc(/C=C/C(=O)O)cc1 | inactive
OCC(CBr)(CBr)CBr | inactive
CC1=CCC(=C(C)C)CC1 | inactive
CC(C)=CCOC(=O)c1ccccc1 | inactive
OC1(c2ccccc2)CCNCC1 | inactive
O=C(Nc1ccc([N+](=O)[O-])cc1)Nc1ccc([N+](=O)[O-])cc1 | inactive
O=C(O)c1cc(C(=O)O)c(C(=O)O)cc1C(=O)O | inactive
Nc1cnn([C@@H]2O[C@H](CO)[C@@H](O)[C@H]2O)c(=O)n1 | inactive
S=C1NC=NC2N=CNC12 (centres undefined) | inactive
NC12CC3CC(CC(C3)C1)C2 | inactive
O=C(O)CCSCCC(=O)O | inactive
Brc1ccccn1 | inactive
COc1ccc(OC)c(N=Nc2c(O)ccc3ccccc23)c1 | inactive
CC(C)C(=O)OC/C=C/c1ccccc1 | inactive
CC(C)(C)c1cc(C=O)cc(C(C)(C)C)c1O | inactive
COc1ccc(-c2cc(=O)c3c(O)cc(O[C@@H]4O[C@H](CO[C@@H]5O[C@@H](C)[C@H](O)[C@@H](O)[C@H]5O)[C@@H](O)[C@H](O)[C@H]4O)cc3o2)cc1O | inactive
CC(=O)N[C@@H](CO)C(=O)N[C@@H](CC(=O)O)C(=O)N[C@@H](CCCCN)C(=O)N1CCC[C@H]1C(=O)O (Ac-SDKP-OH) | inactive
Cn1nnc2c(C(N)=O)ncn2c1=O | inactive
CCCc1ncc(C(=O)O)s1 | inactive
CC(=O)CCc1ccc(O)cc1 | inactive
c1ccc(CC2=NCCN2)cc1 | inactive
O=C(NCCc1c[nH]c2ccccc12)c1cccnc1 | inactive
CN1CCN(CC(=O)N2c3ccccc3C(=O)Nc3cccnc32)CC1 | -0.47% [at 8.39 µM] (inactive)
CC(=O)CC(=O)OC(C)(C)C | inactive
ON=C1CCCC1 | inactive
C/C=C(/C(=C/C)c1ccc(OC(C)=O)cc1)c1ccc(OC(C)=O)cc1 | inactive
Cc1cc(C)c(C=O)c(C)c1 | inactive
Cc1ccc(N(CC2=NCCN2)c2cccc(O)c2)cc1 | inactive
OCC(O)c1ccccc1 (centres undefined) | inactive
CCCCCCCCCCCC[N+](C)(C)CC(=O)[O-] | inactive
Cc1c(C)n(CCN(C)C)c2ccc(C(=O)OCCN(C)C)cc12 | inactive
[O]=[Mo](=[O])=[O] | 0.435% [at 19 µM] (inactive)
O=C1C(CCS(=O)c2ccccc2)C(=O)N(c2ccccc2)N1c1ccccc1 (centres undefined) | inactive

----------
# ASSAY: Nuclear factor erythroid 2-related factor 2/antioxidant responsive element (Nrf2/ARE) small molecule agonists: luciferase reporter gene qHTS assay in human keratinocytes (AID 1919969); note: nearly all actives have a fitted effect of over 35% in size
# TEST SETTINGS: KeratinoSens HaCaT ARE-luciferase, luminescence, 24 h; series mostly up to 92.4 µM
Results filed as inconclusive are left out. Calls of active or inactive are those of the source. Calls come from the whole dose curve.
Classes used: active, inactive

COMPOUND | LABEL VALUE
NC(CO)C(=O)NNCc1ccc(O)c(O)c1O (stereo not given) | inactive
Cc1scc2c1N(C(=O)CN1CCN(C)CC1)c1ccccc1NC2=O | inactive
c1ccc(C(O[C@H]2CCCN(CCc3ccc4c(c3)OCO4)C2)c2ccccc2)cc1 | inactive
CCOC(=O)[C@H](CCc1ccccc1)N[C@H]1CS[C@H](c2cccs2)CN(CC(=O)O)C1=O | inactive
CCCCCCCCC1CO1 (stereo not given) | inactive
N[C@@H](Cc1cc(I)c(O)c(I)c1)C(=O)O | inactive
C=COC(=O)C(C)(CC)CCC(C)C (stereo not given) | inactive
O=C(O)Cc1c(Cl)ccc(Cl)c1Cl | inactive
Cc1ccc2c(c1)C(=O)c1ccccc1C2=O | active
O=C1c2ccccc2S(=O)(=O)N1CCCCN1CCN(c2ncccn2)CC1 | inactive
CC1(C)OC[C@@H](COC(=O)CCc2ccc(OC[C@@H](O)CNCCNC(=O)N3CCOCC3)cc2)O1 | inactive
O=C(O)c1cn(C2CC2)c2cc(Cl)c(F)cc2c1=O | active
CC1(C)CCC(C)(C)c2cc(NC(=O)c3ccc(C(=O)O)cc3)ccc21 | inactive
O=C(CS)Nc1ccccc1 | active
Fc1ccc([C@@H]2CCNC[C@H]2COc2ccc3c(c2)OCO3)cc1 | inactive
CCCCN1CCCC1C(=O)Nc1c(C)cc(C)cc1C (stereo not given) | inactive
Cc1cc(C(C)(C)C)cc(C)c1CC1=NCCN1 | inactive
O=C1NCN(c2ccccc2)C12CCN(CCCC(c1ccc(F)cc1)c1ccc(F)cc1)CC2 | inactive
CCOC(=O)[C@H](CCc1ccccc1)N[C@@H](C)C(=O)N1Cc2cc(OC)c(OC)cc2C[C@H]1C(=O)O | inactive
Cc1ccsc1/C=C/C1=NCCCN1C | inactive
CCCCCCCCCCCCCCCCCC#N | inactive
N#Cc1ccc(C(=O)O)cc1 | inactive
COc1ccccc1N1CCN(CCCNc2cc(=O)n(C)c(=O)n2C)CC1 | inactive
NS(=O)(=O)c1cc(C2(O)NC(=O)c3ccccc32)ccc1Cl (stereo not given) | inactive
N#Cc1ccc(CC(=O)c2cccc(C(F)(F)F)c2)cc1 | inactive

----------
# ASSAY: Nuclear factor erythroid 2-related factor 2/antioxidant responsive element (Nrf2/ARE) small molecule agonists: luciferase reporter gene qHTS assay in human keratinocytes (AID 1919969); note: nearly all actives have a fitted effect of over 35% in size
# TEST SETTINGS: KeratinoSens HaCaT ARE-luciferase, luminescence, 24 h; series mostly up to 92.4 µM
Inconclusive results are not listed. Calls of active or inactive are those of the source. The call rests on the fitted dose curve.
Classes used: Y = active, N = inactive

COMPOUND | LABEL VALUE
CN(C)[C@@H]1C(=O)C(C(=O)NCN2CCCC2)=C(O)[C@@]2(O)C(=O)C3=C(O)c4c(O)cccc4[C@@](C)(O)C3C[C@@H]12 (some centres not stated) | N
Cc1nc(-c2ccc(OCC(C)C)c(C#N)c2)sc1C(=O)O | Y
CCCCS(=O)(=O)N[C@@H](Cc1ccc(OCCCCC2CCNCC2)cc1)C(=O)O | N
Nc1ccccc1O | Y
C1CC(COCC2CO2)CCC1COCC1CO1 (configuration not stated) | Y
COc1c(Br)cc(Br)c(C)c1Br | N
O=C(O)C(Cc1cc(I)c(O)c(I)c1)c1ccccc1 (configuration not stated) | N
CCCCCCC(O)CCCCCCCCCCC(=O)OC (configuration not stated) | N
COc1cc2c(cc1OC)-c1cc3ccc(OC)c(OC)c3c[n+]1CC2 | N
CCc1cccc(CC)c1NC(=O)CN(CC(=O)O)CC(=O)O | N
NCC1CCC(C(=O)Oc2ccc(CCC(=O)O)cc2)CC1 (configuration not stated) | N
O=C(CO)[C@@H](O)[C@H](O)[C@@H](O)CO | N
CCC1C(=O)OCC1Cc1cncn1C (configuration not stated) | N
CC(C)Nc1cccnc1N1CCN(C(=O)c2cc3cc(NS(C)(=O)=O)ccc3[nH]2)CC1 | N
CC(Cl)C(Cl)Cl (configuration not stated) | N
OCCNCc1ccccc1 | Y
NCc1ccco1 | N
Cc1ccc(N(CC2=NCCN2)c2cccc(O)c2)cc1 | N
c1ccc(CCCc2ccccn2)cc1 | N
[Cl][Sc]([Cl])[Cl] | N
CN(C)CCCOC1(Cc2ccccc2)CCCCCC1 | N
CC(C)(O)CCc1ccccc1 | N
COS(=O)(=O)C(F)(F)F | Y
CC(C)CC(C)CC(C)CC(C)COC(=O)c1ccccc1C(=O)OCC(C)CC(C)CC(C)CC(C)C (configuration not stated) | N
N#CC1(N)CCCCC1 | N
CCCCOC(=O)CC | N
CN(C)CCN(Cc1ccc(Cl)cc1)c1ccccn1 | N
C/C=C(\C)C(=O)OCC/C=C\CC | N
Cc1cc(C(=O)O)ccc1[N+](=O)[O-] | N
c1cc(N(CC2CO2)CC2CO2)ccc1Cc1ccc(N(CC2CO2)CC2CO2)cc1 (configuration not stated) | Y
CN(C)C(=O)CNC(=O)Cc1ccccc1 | N
CCCCCCCC/C=C/C(=O)O | N
N[C@H](C(=O)O)[C@@H](O)c1ccc(O)c(O)c1 | N
COc1ccc2nc(SCc3ncc(C)c(OC)c3C)[nH]c2c1 | N
COc1cc2c(N3CCN(C(=O)Nc4ccc(OC(C)C)cc4)CC3)ncnc2cc1OCCCN1CCCCC1 | N
COc1cc(O)cc(O)c1 | N
CCCCc1nc(Cl)c(CO)n1Cc1ccc(-c2ccccc2-c2nn[nH]n2)cc1 | N
CCc1nccnc1C | N
CCCCN(CCCC)C(C(N)=O)c1ccc(OC)cc1 (configuration not stated) | N
Nc1ccc(C(=O)OCCCOC(=O)c2ccc(N)cc2)cc1 | N
CC(C)(C)C(=O)NCCCC(=O)O | N
O=Cc1ccc(F)c(Br)c1 | N
CC(C)CCCC(C)(C)O | N
CN1CC(=O)N/C1=N/C(=O)Nc1cccc(Cl)c1 | N
CC(N)C12CC3CC(CC(C3)C1)C2 (configuration not stated) | N
C[C@]12CCC(=O)C=C1CC[C@@H]1[C@@H]2CC[C@@]2(C)[C@H]1CC[C@]2(O)C(=O)CO | N
CC(=O)Oc1cc(C(C)C)c(OCCN(C)C)cc1C | N
CCCC(=O)OCOC(=O)C1=C(C)NC(C)=C(C(=O)OC)C1c1cccc(Cl)c1Cl (configuration not stated) | N
COc1cc(C(=O)NCCCCCC(=O)O)cc(OC)c1OC | N
C=CCn1c(=O)n([C@@H]2O[C@H](CO)[C@@H](O)[C@H]2O)c2nc(N)[nH]c(=O)c21 | N
C[C@@H]1C[C@H]2[C@@H]3CCC4=CC(=O)C=C[C@]4(C)[C@@]3(F)[C@@H](O)C[C@]2(C)[C@H]1C(=O)CO | N
CC(C(=O)O)c1ccc(C(=O)c2ccccc2)s1 (configuration not stated) | N
